Values from patent US9783537B2

Could you please report measured Log10 TGI50 for the items listed next?
Tested on: HCT-15
Assay Name: SRB 48 h growth assay, Colon HCT-15
Type: cell-based, human
Measurement Context: HCT-15, Colon
# print the numeric value only

Form: compound = C#Cc1ccc(-n2c(/C=C/c3ccc(C(F)(F)F)cc3)nc3ncccc3c2=O)cc1 ; Log10 TGI50 = −5.43

Log10 TGI50 recorded for this compound, C#Cc1ccc(-n2c(/C=C/c3ccc4ccccc4n3)nc3ncccc3c2=O)cc1 , is −5.88

====

Test system: HS578T
Assay Name: SRB 48 h growth assay, Breast HS578T
Format: cell-based, human
Measurement Context: Homo sapiens, Hs-578T, read-out: Log10 GI50 (converted)
Readout: GI50 (µM)
Report the value in µM with no unit label.

What the record says about C#Cc1ccc(-n2c(/C=C/c3ccc(O)cc3)nc3ncccc3c2=O)cc1 : GI50 is 3.24

Record C#Cc1ccc(-n2c(/C=C/c3ccc(Cl)c(F)c3)nc3ncccc3c2=O)cc1 , field GI50: 0.417

get_value(item= C#Cc1ccc(-n2c(/C=C/c3cc(OC)c(OC)c(OC)c3)nc3ncccc3c2=O)cc1 , readout=GI50) returns 3.63

Value of GI50 reported for the compound C#Cc1ccc(-n2c(/C=C/c3ccc4ccccc4c3)nc3ncccc3c2=O)cc1 is 7.59

Record C#Cc1ccc(-n2c(/C=C/c3ccc(C(F)(F)F)cc3)nc3ncccc3c2=O)cc1 , field GI50: 3.47

The reported value for C#Cc1ccc(-n2c(/C=C/c3ccc4ccccc4n3)nc3ncccc3c2=O)cc1 in terms of GI50 is 0.24

====

System: NCI/ADR-RES
Assay Name: SRB 48 h growth assay, Ovarian NCI/ADR-RES
Assay type: cell-based, human
Measurement Context: Homo sapiens, read-out: Growth Inhibition GI50
Please provide measured GI50 for the entries that follow.
Please state the figure in nM; there is no need to write the unit.

GI50 for C#Cc1ccc(-n2c(/C=C/c3ccc(Cl)c(F)c3)nc3ncccc3c2=O)cc1 is 410

The value of GI50 measured for the compound C#Cc1ccc(-n2c(/C=C/c3ccc4ccccc4c3)nc3ncccc3c2=O)cc1 turned out to be 3290

Value of GI50 reported for the compound C#Cc1ccc(-n2c(/C=C/c3cc(OC)c(OC)c(OC)c3)nc3ncccc3c2=O)cc1 is 3610

The value of GI50 measured for the compound C#Cc1ccc(-n2c(/C=C/c3ccc(O)cc3)nc3ncccc3c2=O)cc1 turned out to be 5280

Recorded result, C#Cc1ccc(-n2c(/C=C/c3ccc(C(F)(F)F)cc3)nc3ncccc3c2=O)cc1 , GI50: 2500

GI50 reading for C#Cc1ccc(-n2c(/C=C/c3ccc4ccccc4n3)nc3ncccc3c2=O)cc1 : 380

====

System: KM12
Assay Name: SRB 48 h growth assay, Colon KM12
Format: cell-based, human
Measurement Context: Homo sapiens, read-out: Log10 GI50 (converted)
Flag rule - GI50 less than 2000 nM flags Met; the remaining entries get Not met.

Strictly below 2000 nM in GI50? C#Cc1ccc(-n2c(/C=C/c3cc(OC)c(OC)c(OC)c3)nc3ncccc3c2=O)cc1
Not met

Given the entry C#Cc1ccc(-n2c(/C=C/c3ccc(O)cc3)nc3ncccc3c2=O)cc1 , would its reported GI50 be below 2000 nM?
Not met

Dear colleague, could you confirm whether GI50 of C#Cc1ccc(-n2c(/C=C/c3ccc(Cl)c(F)c3)nc3ncccc3c2=O)cc1 falls below 2000 nM? Thanks.
Met

Does this compound meet the criterion GI50 < 2000 nM? C#Cc1ccc(-n2c(/C=C/c3ccc4ccccc4c3)nc3ncccc3c2=O)cc1
Not met

Is the reported GI50 for C#Cc1ccc(-n2c(/C=C/c3ccc(C(F)(F)F)cc3)nc3ncccc3c2=O)cc1 strictly below 2000 nM?
Met

In the record for C#Cc1ccc(-n2c(/C=C/c3ccc4ccccc4n3)nc3ncccc3c2=O)cc1 , is GI50 less than 2000 nM?
Met
